Test system: Escherichia coli
PROTOCOL NOTES: MIC against clinical isolates
Format: cell-based
TEST CONTEXT: Table 5-2, clinical isolate; unit assumed
MEASURE NAME: MIC Escherichia coli K-2 (µg/mL)
All answers are understood in µg/mL, so give the number only.

CC1(C)S[C@@H]2[C@H](NC(=O)C(C(=O)O)c3ccccc3)C(=O)N2[C@H]1C(=O)O (stereo partly drawn) [Sodium Carbenicillin, reference compound] : 6.25

Query: Report MIC Escherichia coli K-2 for CC(C)N1CCN(C(=O)NC(C(=O)NC2C(=O)N3C2SC(C)(C)C3C(=O)O)c2ccccc2)C(=O)C1=O (single isomer, unassigned) please.
Reply: 3.13

Query: MIC Escherichia coli K-2; subject: CC1(C)S[C@@H]2[C@H](NC(=O)[C@H](N)c3ccccc3)C(=O)N2[C@H]1C(=O)O [Sodium Ampicillin, reference compound]
Reply: 6.25

Query: Data request, read-out MIC Escherichia coli K-2, for CCCN1CCN(C(=O)NC(C(=O)NC2C(=O)N3C2SC(C)(C)C3C(=O)O)c2ccccc2)C(=O)C1=O (single isomer, unassigned)
Reply: 3.13

Query: Item CCCCCCCCN1CCN(C(=O)NC(C(=O)NC2C(=O)N3C2SC(C)(C)C3C(=O)O)c2ccccc2)C(=O)C1=O (single isomer, unassigned) has what recorded MIC Escherichia coli K-2?
Reply: 1.57

Query: Give its MIC Escherichia coli K-2 value. Item: `CCN1CCN(C(=O)N[C@@H](C(=O)N[C@@H]2C(=O)N3[C@@H]2SC(C)(C)[C@@H]3C(=O)O)c2ccccc2)C(=O)C1=O`
Reply: 3.13

Every entry's value here was drawn from patent US4327097A.
